target: recombinant human Cathepsin K (Homo sapiens (Human)); experiment: Inhibition of human Cathepsin K; conditions: substrate Z-Gly-Pro-Arg-AMC
Reported IC50 values follow for various compounds
Enter your answer as a number in µM; do not include the unit.

Query: Form field: IC50 recorded for CNS(=O)(=O)c1ccc(-c2ccc(CC(C#N)NC(=O)[C@H]3N[C@@H]4CC[C@H]3C4)c(F)c2)cc1 (stereo partly shown) with recombinant human Cathepsin K (Homo sapiens (Human)) (enter value)
Reply: 4.9

Query: Form field: IC50 recorded for `N#C[C@H](Cc1ccc(-c2csc(C(=O)NC3CCOCC3)c2)cc1F)NC(=O)[C@H]1N[C@@H]2CC[C@H]1C2` with recombinant human Cathepsin K (Homo sapiens (Human)) (enter value)
Reply: 3

Query: Form field: IC50 recorded for `COc1cccc(-c2cn(-c3ccc(C[C@@H](C#N)NC(=O)[C@H]4N[C@@H]5CC[C@H]4C5)c(F)c3)nn2)c1` with recombinant human Cathepsin K (Homo sapiens (Human)) (enter value)
Reply: 4.9

Query: Form field: IC50 recorded for N#C[C@H](Cc1ccc(-c2cnn(CC3CCOC3)c2)cc1F)NC(=O)[C@H]1N[C@@H]2CC[C@H]1C2 (stereo partly shown) with recombinant human Cathepsin K (Homo sapiens (Human)) (enter value)
Reply: 4.9

* * *

Molecular target: recombinant human Cathepsin K (Homo sapiens (Human), UniProt P43235)
Sequence (P43235 115-329): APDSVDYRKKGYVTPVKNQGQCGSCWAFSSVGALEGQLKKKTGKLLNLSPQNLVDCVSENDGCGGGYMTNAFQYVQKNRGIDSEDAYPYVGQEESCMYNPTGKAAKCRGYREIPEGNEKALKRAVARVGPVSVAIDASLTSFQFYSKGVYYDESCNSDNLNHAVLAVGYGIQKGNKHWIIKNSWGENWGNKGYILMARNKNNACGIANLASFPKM
Experiment: Inhibition of human Cathepsin K
Details: substrate Z-Gly-Pro-Arg-AMC
Procedure: Inhibition of Human Cathepsin K […] 5 μL test compound (final concentration 0.1 nM to 100 μM) in aqua bidest (containing 4% DMSO, final DMSO concentration 1%) were mixed with 10 uL of Cathepsin K in assay buffer (final concentration 2 ng/μL) and incubated for 10 min. […] The fluorescence in the wells was determined using a Molecular Devices SpectraMax M5 Fluorescence Reader (Ex 360 nm, Em 460 nm). […]
measured-property: IC50

Look over these answered cases.
N#C[C@H](Cc1ccc(-c2cnn(C[C@H]3CCCO3)c2)cc1F)NC(=O)[C@H]1N[C@@H]2CC[C@H]1C2 [Example 260]
3.9 µM
CN1CCC2(C=C(c3ccc(C[C@@H](C#N)NC(=O)[C@H]4N[C@@H]5CC[C@H]4C5)c(F)c3)C2)CC1 [Example 359]
6.3 µM

Query: Requested field: IC50. Item: CNC(=O)c1ccc(-c2ccc(C[C@@H](C#N)NC(=O)[C@H]3N[C@@H]4CC[C@H]3C4)c(F)c2)cc1 [Example 186]
Reply: 3.5 µM

Query: Requested field: IC50. Item: N#C[C@H](Cc1ccc(-c2cc(-c3ccccc3)no2)cc1F)NC(=O)[C@H]1N[C@@H]2CC[C@H]1C2 [Example 96]
Reply: 5.5 µM

* * *

test: Determination of metabolic stability with human liver microsomes; conditions: human, pooled human liver microsomes, pH 7.6
Reported half-life at 1 μM values follow for various compounds

Query: Requested field: half-life at 1 μM. Item: N#C[C@H](Cc1ccc(-c2ccc(C(=O)N3CCN4CCOCC4C3)o2)cc1F)NC(=O)[C@H]1N[C@@H]2CC[C@H]1C2 (stereo partly drawn)
Reply: 110 min

Query: Requested field: half-life at 1 μM. Item: CS(=O)(=O)Nc1ccc(-c2ccc(CC(C#N)NC(=O)[C@H]3N[C@@H]4CC[C@H]3C4)c(F)c2)cc1 (stereo partly drawn)
Reply: > 130 min

Query: Requested field: half-life at 1 μM. Item: `N#C[C@H](Cc1ccc(N2CCC(N3CCOCC3)CC2)cc1F)NC(=O)[C@H]1N[C@@H]2CC[C@H]1C2`
Reply: > 130 min

Query: Requested field: half-life at 1 μM. Item: `N#C[C@H](Cc1ccc(-c2cccc(S(N)(=O)=O)c2)cc1F)NC(=O)[C@H]1N[C@H]2C[C@@H]1[C@@H]1C[C@@H]12`
Reply: > 130 min

Query: Requested field: half-life at 1 μM. Item: `N#C[C@H](Cc1cc2c(=O)[nH]c3c(F)c(F)ccc3c2cc1F)NC(=O)[C@H]1N[C@@H]2CC[C@H]1C2`
Reply: > 130 min

Query: Requested field: half-life at 1 μM. Item: `N#C[C@H](Cc1ccc(-c2ccc(C(=O)N3CCOCC3)o2)cc1F)NC(=O)[C@H]1N[C@@H]2CC[C@H]1C2`
Reply: > 130 min
